- Method notes: PK study of male SD rats after single intragastric administration (5% solutol)
- Format: in vivo
- Test context: male, SD, rat, plasma, po, 100 mg/kg, single PO compound 1-6 100 mg/kg, analyte compound 1-6, animal 6
Measure: AUC(0-t)
Just so you know, I need the unit written after the number.

Request: Bench note: what AUC(0-t) did O=C(c1ccc(F)cc1C(F)(F)F)c1cnc2n1CCN(c1cn[nH]c(=O)c1Cl)C2 show?
Response: 18200 ng·h/mL

---

- Method notes: Tissue distribution in CD-1 mice after single intragastric administration
- Assay type: in vivo
- Test context: mouse, kidney, oral; male CD-1 mice, 10 mg/kg intragastric, 0.167 hours; read-out: kidney, times of the plasma concentration
Measure: Kp at 0.167 h
Form: value (number only, do not type unit).

Request: Quick one: Kp at 0.167 h of O=C(c1ccc(F)cc1C(F)(F)F)c1cnc2n1CCN(c1cn[nH]c(=O)c1Cl)C2 ?
Response: 2.5

---

- Method notes: PK study of male SD rats after single intragastric administration (5% solutol)
- Format: in vivo
- Test context: male, SD, rat, plasma, po, 100 mg/kg, single PO compound 1-6 100 mg/kg, analyte compound 1-6, animal 4
Measure: MRT last (h)
Enter your answer as a number in h; do not include the unit.

Request: For the molecule shown here, O=C(c1ccc(F)cc1C(F)(F)F)c1cnc2n1CCN(c1cn[nH]c(=O)c1Cl)C2 , give the reported MRT last.
Response: 8.03

---

- Method notes: PK study of male SD rats after single intragastric administration (5% solutol)
- Type: in vivo
- Test context: male, SD, rat, plasma, po, 100 mg/kg, single PO compound 1-6 100 mg/kg, analyte compound 1-6, animal 4
Measure: AUC(0-t)

Request: Can you share its AUC(0-t)? I mean this compound: O=C(c1ccc(F)cc1C(F)(F)F)c1cnc2n1CCN(c1cn[nH]c(=O)c1Cl)C2
Response: 13.5 µg·h/mL
